The reported measurements were obtained from patent US6984719B1.

This listing pairs substances with measured % inhibition of maximal response.
- Experimental target: FP receptor (Sus scrofa)
- Construct: from tissue; host or cells: eyecup / retinal microvessels of newborn pigs pretreated with ibuprofen
- Sequence (C6GAG8 1-362): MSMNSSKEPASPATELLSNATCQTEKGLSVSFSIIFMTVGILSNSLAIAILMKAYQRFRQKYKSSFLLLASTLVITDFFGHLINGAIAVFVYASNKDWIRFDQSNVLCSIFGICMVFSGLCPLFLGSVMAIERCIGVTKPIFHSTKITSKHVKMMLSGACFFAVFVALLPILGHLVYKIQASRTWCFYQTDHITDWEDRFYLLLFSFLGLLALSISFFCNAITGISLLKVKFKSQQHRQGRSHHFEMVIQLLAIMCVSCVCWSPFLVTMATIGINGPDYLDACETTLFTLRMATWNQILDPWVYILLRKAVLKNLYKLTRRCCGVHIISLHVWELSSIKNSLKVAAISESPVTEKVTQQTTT
- Assay notes: Porcine eyecup model of ex vivo vasomotricity assay, PGF2α-induced constriction of retinal microvessels
- Set-up: species or system pig
- Assay setup: 100 μM peptide; 10^−7 M PGF2α; calculated as 100-percent vasomotor response
Square brackets hold non-standard residues; d marks the D form. Ends that are not written are not given here.
Unit % implied. Number only.

// known answers, use as guide
{"columns": ["Substance", "% inhibition of maximal response / %"],
 "data": [
  ["ILGHRDY-amide ([dI][dL]G[dH][dR][dD][dY]-NH2) [PCP-13.20]", 50.4],
  ["ILGFRDYK (Peptide antagonist derived from the sequence of the Prostaglandin F2-alpha receptor.) [PCP-13.11]", 87.0],
  ["ILGHQDYK (Peptide antagonist derived from the sequence of the Prostaglandin F2-alpha receptor.) [PCP-13.18]", 70.0],
  ["ILAHRDYK (Peptide antagonist derived from the sequence of the Prostaglandin F2-alpha receptor.) [PCP-13.7]", 76.2]
]}

Please look at the following substance next.
// sample ILGHRDYK-amide ([dI][dL]G[dH][dR][dD][dY][dK]-NH2) [PCP-13.21] , its % inhibition of maximal response was 53.8
